- experimental-system: T1, human NMUR1 (human, UniProt Q9HB89 1-426)
- T1 sequence (looked up): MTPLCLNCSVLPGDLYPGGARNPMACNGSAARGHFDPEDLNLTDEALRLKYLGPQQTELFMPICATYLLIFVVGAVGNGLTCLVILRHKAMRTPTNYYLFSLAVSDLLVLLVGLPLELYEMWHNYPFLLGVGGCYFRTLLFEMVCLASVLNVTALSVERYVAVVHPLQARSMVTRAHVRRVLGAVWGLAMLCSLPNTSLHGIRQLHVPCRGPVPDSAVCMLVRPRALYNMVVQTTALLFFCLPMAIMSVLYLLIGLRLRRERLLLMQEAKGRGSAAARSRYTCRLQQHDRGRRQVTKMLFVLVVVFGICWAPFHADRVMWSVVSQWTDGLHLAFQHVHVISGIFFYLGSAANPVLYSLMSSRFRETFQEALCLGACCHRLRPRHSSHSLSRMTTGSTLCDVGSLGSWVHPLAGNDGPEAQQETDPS
- procedure-details: cell-based or functional assay
Non-standard residues stand in square brackets, D forms with d. No end group written: not given here. hArg = N=C(N)NCCCC[C@H](N)C(=O)O
observable: EC50

// returns reported EC50 for input FWLFRP[hArg]N-NH2 (N-terminus assumed; SMILES CC(C)C[C@H](NC(=O)[C@H](Cc1c[nH]c2ccccc12)NC(=O)[C@@H](N)Cc1ccccc1)C(=O)N[C@@H](Cc1ccccc1)C(=O)N[C@@H](CCCNC(=N)N)C(=O)N1CCC[C@H]1C(=O)N[C@@H](CCCCNC(=N)N)C(=O)N[C@@H](CC(N)=O)C(N)=O) [neuromedin U receptor agonist I] > 1000 nM

So what's the measured EC50 for this one? FWLFRA[hArg]N-NH2 (N-terminus assumed; SMILES CC(C)C[C@H](NC(=O)[C@H](Cc1c[nH]c2ccccc12)NC(=O)[C@@H](N)Cc1ccccc1)C(=O)N[C@@H](Cc1ccccc1)C(=O)N[C@@H](CCCNC(=N)N)C(=O)N[C@@H](C)C(=O)N[C@@H](CCCCNC(=N)N)C(=O)N[C@@H](CC(N)=O)C(N)=O) [neuromedin U receptor agonist J] > 1000 nM

Returns the measured EC50 for the input binder. Input: FWLFRARN-NH2 [neuromedin U receptor agonist L] > 1000 nM
